Target: T1, human folate receptor alpha (hFRα), recombinant protein (human, UniProt P15328 25-233)
T1 construct: Bought recombinant proteins (His-tagged, or biotinylated via Avi-tag, e.g. AcroBiosystems FO1-H82E2, F01-H52H1); also called hFOLR1; huFOLR1
T1 sequence (P15328 25-233 limits assumed): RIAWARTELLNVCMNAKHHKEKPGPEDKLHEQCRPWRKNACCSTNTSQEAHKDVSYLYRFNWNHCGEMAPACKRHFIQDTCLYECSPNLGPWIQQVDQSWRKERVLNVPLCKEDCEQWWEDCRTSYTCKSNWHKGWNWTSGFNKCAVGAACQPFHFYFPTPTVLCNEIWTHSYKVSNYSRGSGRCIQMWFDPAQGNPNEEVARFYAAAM
Test: BLI, biotinylated FOLR1 on streptavidin biosensors
Reported koff by item:
Measured Quantity: koff (s⁻¹)

[[record]]
binder = "2MFR67 (E72D, D72N, S74A)-NT (VHH, not shown: small tags and cut ends, Second substitution printed D72N; also called 2MFR67 triple mutant) VHH: QVQLQESGGGLVQAGGSLRLSCAASGSGFSGMIMGWYRQAPGKQRELVATVTSHGTTNYADSVKGRFTISRDNAKNTVLLQMNSLKPEDTAVYYCNAHFPGIYWGKGTQVTVSS"
measured_quantity = "koff"
test_value = 0.0173

[[record]]
binder = "2HFO9(G54H)-NT (VHH, not shown: neurotensin tridecapeptide (NT) and any linker or tags of the fusion) VHH: QVQLQESGGGLVQAGGSLRLSCAASGSGFSGMIMGWYRQAPGKQRELVATITSHGTTNYADSVKGRFTISRDNAKNTVLLQMNSLKPEDTAVYYCNAHFPGIYWGKGTQVTVSS"
measured_quantity = "koff"
test_value = 0.0133

[[record]]
binder = "2HFO42-NT (2HFO42 fused to neurotensin) (VHH) VHH: QVQLQESGGGLVQAGGSLRLSCAASGSGFSGMIMGWYRQVPGKQRELVATVTSHGTTNYADSVKGRFTISRDNAKNTVLLQMNSLKPEDTAVYYCNAHFPGIYWGKGTQVTVSS"
measured_quantity = "koff"
test_value = 0.0154

